details: in ethanol, 278.15 K
EXPERIMENTAL READOUT: solubility (mole fraction)
# output: bare number, no unit

[ask] // solubility (mole fraction) lookup, key: Nc1ccc(N2CCOCC2=O)cc1
[reply] 0.00127

----------
conditions: in 1,4-dioxane, 283.15 K
EXPERIMENTAL READOUT: solubility (mole fraction)
A bare number is all that is needed in reply.

[ask] # solubility (mole fraction) lookup, item Nc1ccc(N2CCOCC2=O)cc1
[reply] 0.00529

----------
conditions: in ethanol, 293.15 K
EXPERIMENTAL READOUT: solubility (mole fraction)
Enter a number only.

[ask] Tell me the measured solubility (mole fraction) of Nc1ccc(N2CCOCC2=O)cc1 , please.
[reply] 0.0026

----------
conditions: in methanol, 278.15 K
EXPERIMENTAL READOUT: solubility (mole fraction)
# answer = number (no unit)

[ask] // query solubility (mole fraction) value for entry Nc1ccc(N2CCOCC2=O)cc1
[reply] 0.00172

----------
details: in ethanol, 313.15 K
EXPERIMENTAL READOUT: solubility (mole fraction)
// keep it numeric: no unit symbol after the value

[ask] Item Nc1ccc(N2CCOCC2=O)cc1 has what recorded solubility (mole fraction)?
[reply] 0.00567

----------
details: in n-propanol, 278.15 K
EXPERIMENTAL READOUT: solubility (mole fraction)
Number only, please.

[ask] GET /values?readout=solubility (mole fraction)&item= Nc1ccc(N2CCOCC2=O)cc1
[reply] 0.000322

----------
settings: in THF, 323.15 K
EXPERIMENTAL READOUT: solubility (mole fraction)

[ask] What value of measured solubility (mole fraction) is listed for Nc1ccc(N2CCOCC2=O)cc1 ?
[reply] 0.0132

----------
settings: in 1,4-dioxane, 293.15 K
EXPERIMENTAL READOUT: solubility (mole fraction)

[ask] Quick one: solubility (mole fraction) for Nc1ccc(N2CCOCC2=O)cc1 ?
[reply] 0.0083

----------
conditions: in methanol, 283.15 K
EXPERIMENTAL READOUT: solubility (mole fraction)

[ask] For the compound shown here, Nc1ccc(N2CCOCC2=O)cc1 , give the reported solubility (mole fraction).
[reply] 0.00221

----------
details: in ethyl acetate, 308.15 K
EXPERIMENTAL READOUT: solubility (mole fraction)
Lab note: record just the number, no unit beside it.

[ask] Param item = Nc1ccc(N2CCOCC2=O)cc1 ; retrieve measured solubility (mole fraction).
[reply] 0.00326

----------
conditions: in 1,4-dioxane, 333.15 K
EXPERIMENTAL READOUT: solubility (mole fraction)
# respond with the number and nothing more

[ask] Which measured solubility (mole fraction) value corresponds to Nc1ccc(N2CCOCC2=O)cc1 ?
[reply] 0.032

----------
details: in ethanol, 333.15 K
EXPERIMENTAL READOUT: solubility (mole fraction)
Simply state the number, no unit and no words.

[ask] Query (molecule): Nc1ccc(N2CCOCC2=O)cc1 ; field requested: solubility (mole fraction)
[reply] 0.0107

----------
conditions: in ethyl acetate, 323.15 K
EXPERIMENTAL READOUT: solubility (mole fraction)

[ask] What measured solubility (mole fraction) goes with Nc1ccc(N2CCOCC2=O)cc1 ?
[reply] 0.0062

----------
conditions: in ethyl acetate, 283.15 K
EXPERIMENTAL READOUT: solubility (mole fraction)
Lab note: jot the number down without any unit.

[ask] Suppose we examine the compound Nc1ccc(N2CCOCC2=O)cc1 ; what solubility (mole fraction) value has been reported?
[reply] 0.000794

Entry source: BigSolDB 2.1
